Origin of values: patent US20070134286A1

# Tested on: TGFβ3
# experiment-notes: Real-time RT-PCR, TGFβ3 mRNA expression in smooth muscle cells
# Format: cell-based
# test-conditions: Homo sapiens, normalized to GAPDH, FIG. 7, read-out: EC50 on TGFβ3 mRNA expression (up-regulation)
recorded-endpoint: pEC50
Bear in mind: pEC50 is minus log10 of a mol/L concentration; give just that figure.

INPUT: State the recorded pEC50 for this entry: C[C@H](/C=C/[C@H](C)C(C)(C)O)[C@H]1CC[C@H]2/C(=C/C=C3C[C@@H](O)C[C@H](O)C3)CCC[C@]12C [paricalcitol]
OUTPUT: 7.97
